assay.protocol: Antiproliferation (MTS) assay, cytotoxicity
Assay type: cell-based
condition.info: African green monkey, Vero E6 cells
reported.metric: CC50 at 48 h

>>> reported_measurement("COc1ccc(C(=O)Nc2cccc(C(F)(F)F)c2)cc1Nc1nc(-c2cccnc2)c2[nH]ccc2n1")
"> 150 µM"

###

assay.protocol: Pharmacokinetics after single intravenous and oral administration
Type: in vivo
condition.info: Sprague Dawley, plasma; rat, IV, 2 mg/kg
reported.metric: AUC(0-inf)

>>> reported_measurement("COc1ccc(C(=O)Nc2cccc(C(F)(F)F)c2)cc1Nc1nc(-c2cccnc2)c2[nH]ccc2n1 [XMU-MP-7]")
"4250 ng·h/mL"

###

assay.protocol: Pharmacokinetics after single intravenous and oral administration
Assay type: in vivo
condition.info: Sprague Dawley, plasma; rat, PO, 10 mg/kg; read-out: F (oral bioavailability)
Protocol: The pharmacokinetics of XMU-MP-7 were determined following single intravenous and oral administration in Sprague Dawley rat (N = 3/each) at the dose indicated. Blood samples were collected at 0.08, 0.25, 0.5, 1, 2, 4, 8 & 24 hr (IV) & 0.25, 0.5, 1, 2, 4, 6, 8 & 24 hr (PO) post dose. Then the samples were quantified by LC-MS/MS, and data analysis was conducted using WinNonlin V6.3. […]
reported.metric: bioavailability (%)

>>> reported_measurement("COc1ccc(C(=O)Nc2cccc(C(F)(F)F)c2)cc1Nc1nc(-c2cccnc2)c2[nH]ccc2n1 [XMU-MP-7]")
10.4

###

assay.protocol: Pharmacokinetics after single intravenous and oral administration
Assay type: in vivo
condition.info: Sprague Dawley, plasma; rat, IV, 2 mg/kg
reported.metric: C0 (ng/mL)

>>> reported_measurement("COc1ccc(C(=O)Nc2cccc(C(F)(F)F)c2)cc1Nc1nc(-c2cccnc2)c2[nH]ccc2n1")
14000

###

assay.protocol: Pharmacokinetics after single intravenous and oral administration
Format: in vivo
condition.info: Sprague Dawley, plasma; rat, IV, 2 mg/kg
reported.metric: clearance (mL/min/kg)

>>> reported_measurement("COc1ccc(C(=O)Nc2cccc(C(F)(F)F)c2)cc1Nc1nc(-c2cccnc2)c2[nH]ccc2n1")
7.88

###

assay.protocol: Pharmacokinetics after single intravenous and oral administration
Type: in vivo
condition.info: Sprague Dawley, plasma; rat, IV, 2 mg/kg
reported.metric: half-life (min)

>>> reported_measurement("COc1ccc(C(=O)Nc2cccc(C(F)(F)F)c2)cc1Nc1nc(-c2cccnc2)c2[nH]ccc2n1")
36.5

###

assay.protocol: Pharmacokinetics after single intravenous and oral administration
Type: in vivo
condition.info: Sprague Dawley, plasma; rat, IV, 2 mg/kg; read-out: MRT(0-∞)
reported.metric: MRT inf (min)

>>> reported_measurement("COc1ccc(C(=O)Nc2cccc(C(F)(F)F)c2)cc1Nc1nc(-c2cccnc2)c2[nH]ccc2n1")
25.7

###

// CC50 at 48 h lookup, one value per entry
assay.protocol: Cytotoxicity of drugs used in pseudovirus experiments (MTS)
Format: cell-based
condition.info: human; 293T-hACE2 cells, MTS assay at 48 hours, n = 3
reported.metric: CC50 at 48 h

>>> reported_measurement("Cc1ccc(NC(=O)c2cccc(C(F)(F)F)c2)cc1Nc1nc(-c2ccncc2)c2[nH]ccc2n1")
"> 10 µM"
>>> reported_measurement("Cc1cccc(/C=N/Nc2cc(N3CCOCC3)nc(OCCc3ccccn3)n2)c1")
"> 10 µM"
>>> reported_measurement("COc1ccc(C(=O)Nc2cccc(C(F)(F)F)c2)cc1Nc1nc(-c2cccnc2)c2[nH]ccc2n1")
"> 10 µM"
